testedOn: T1, WW1 domain of WWOX (residues 16–50) (human, UniProt Q9NZC7 16-50)
T1 chain (looked up): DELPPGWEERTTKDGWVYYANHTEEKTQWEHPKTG
measurementNotes: ITC
outcomeMeasure: pKd
# log scale: pKd equals minus log10 of the concentration in mol/L

GHSPPPAYTPMS [ErbB4_PY2 peptide (12-mer spanning the PY2 PPXY motif of the ICD of ErbB4)] | 3.44

pKd for FNIPPPIYTSRA [ErbB4_PY1 peptide (12-mer spanning the PY1 PPXY motif of the ICD of ErbB4)] ? 3.42
